- TARGET_DESC: PDK1 (Homo sapiens (Human), UniProt O15530)
- Sequence (O15530 51-359): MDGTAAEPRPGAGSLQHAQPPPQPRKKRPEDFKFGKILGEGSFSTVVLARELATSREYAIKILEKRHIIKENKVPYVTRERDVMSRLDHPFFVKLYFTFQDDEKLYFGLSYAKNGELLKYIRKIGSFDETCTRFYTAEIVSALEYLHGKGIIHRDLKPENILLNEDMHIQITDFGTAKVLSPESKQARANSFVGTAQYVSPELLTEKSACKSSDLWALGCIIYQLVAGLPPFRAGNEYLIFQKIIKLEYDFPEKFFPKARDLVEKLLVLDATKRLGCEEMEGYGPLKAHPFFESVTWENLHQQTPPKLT
- ASSAY_METHOD_TEXT: PDK1 kinase assay (coupled PDK1/AKT/FAM-crosstide assay, IMAP fluorescence polarization)
- Type: biochemical
- SETTINGS: inhibition of PDK1 in vitro
REPORTED_METRIC: IC50

COCCCNc1cnc(-c2ccc(CNc3ncc(C#N)cc3C(=O)N[C@@H](C)c3ccc(F)cc3)cc2)cn1 | 1 to 5 µM
Nc1n[nH]c2ncc(-c3ccc(CNc4ncc(C(F)(F)F)cc4C(=O)Nc4cccnc4)cc3)cc12 | < 0.1 µM
N#Cc1cnc(NCc2ccc(Oc3cccnc3N)cc2)c(C(=O)NCc2ccc(F)c(F)c2)c1 | > 5 µM
Cn1ccc(NC(=O)c2cc(C(F)(F)F)cnc2NCc2ccc(-c3cnc4[nH]nc(N)c4c3)cc2)n1 | 1 to 5 µM
C[C@H](NC(=O)c1cccnc1NCc1ccc(-c2cnc3[nH]ncc3c2)cc1)c1ccc(F)cc1 | < 0.1 µM

Need IC50 of Nc1ncnc2c1c(-c1ccc(CNc3ncc(C(F)(F)F)cc3C(=O)NCc3ccc(F)c(F)c3)cc1)cn2CCCO , thanks.
< 0.1 µM

Again, but for C[C@H](NC(=O)c1nc(C#N)cnc1NCc1ccc(-c2cnc(N)c(O[C@@H]3CCNC3)n2)cc1)c1ccc(F)c(F)c1
< 0.1 µM

# iterate: Nc1n[nH]c2ncc(-c3ccc(CNc4ncc(C(F)(F)F)cc4C(=O)NCc4ccc(Cl)cc4)cc3)cc12
< 0.1 µM

Also check Nc1ncc(-c2ccc(CNc3ncc(C(F)(F)F)cc3C(=O)Nc3ccc(F)cc3)cc2)nc1O[C@H]1CCNC1
< 0.1 µM

Here is the next molecule: Nc1ncnn2ccc(-c3ccc(CNc4ncc(C(F)(F)F)cc4C(=O)Nc4ccc(F)cc4)cc3)c12
< 0.1 µM

Same read-out for C[C@H](NC(=O)c1cc(C#N)cnc1N[C@H](C)c1ccc(-c2cn(C)c3ncnc(N)c23)cc1)c1ccc(F)cc1 ?
< 0.1 µM

Next record, please: N#Cc1ccc(NCc2ccc(-c3ccc4ncnc(N)c4c3)s2)c(C(=O)NCc2ccc(F)c(F)c2)c1
< 0.1 µM

Repeat for the following molecule: Nc1ncc(-c2ccc(CNc3ncc(C(F)(F)F)cc3C(=O)Nc3ccc(F)cc3)cc2)nc1C(=O)N1CCNCC1
< 0.1 µM

What would you report for Nc1n[nH]c2ncc(-c3ccc(CNc4ncc(C(F)(F)F)cc4C(=O)NCc4ccc(F)c(Cl)c4)cc3)cc12 ?
< 0.1 µM

---

- TARGET_DESC: PDK1 (Homo sapiens (Human), UniProt O15530)
- ASSAY_METHOD_TEXT: PDK1 kinase assay (coupled PDK1/AKT/FAM-crosstide assay, IMAP fluorescence polarization)
- Assay type: biochemical
- SETTINGS: inhibition of phospo-PDK1 in vitro
pIC50: −log10 of the molar value. Where a name gives a salt, the structure may show the parent alone.
The compounds listed here are annotated with their pIC50.

Worked examples, 6 compounds total:
CC(C)Oc1cc(CNc2ncccc2C(=O)N(C)c2ccc(F)cc2)cc(-c2c[nH]c3ncc(C(=O)NC4CC4)cc23)c1 | < 5.30
O=C(NCc1ccc(F)c(F)c1)c1cccnc1NCc1csc(-c2c[nH]c3ncccc23)n1 | > 7.00
Nc1ncnc2ccc(-c3ccc(CNc4ncccc4C(=O)Nc4ccc(C(F)(F)F)cc4)s3)cc12 [Example 3.26, (TFA salt)] | < 5.30
C[C@H](NC(=O)c1cc(F)cnc1NCc1ccc(-c2cc3c(N)ncnc3cn2)s1)c1ccc(F)c(F)c1 | 6.00 to 7.00
Nc1ncnc2ccc(-c3ccc(CNc4nccc5ncn(Cc6ccc(F)c(F)c6)c(=O)c45)s3)cc12 | > 7.00
CC(Nc1ncccc1C(=O)NCc1ccc(F)c(F)c1)c1ccc(-c2ccc3ncnc(N)c3c2)s1 (centres unmarked) | 6.00 to 7.00

Need pIC50, item O=C(NCc1ccc(F)c(F)c1)c1cccnc1NCc1ccc(-c2cnc3[nH]ncc3c2)cc1
> 7.00

Now the compound Nc1ncnc2ccc(-c3ccc(CNc4ncc(NC(=O)c5ccccc5)cc4C(=O)NCc4ccc(F)c(F)c4)s3)cc12
6.00 to 7.00

Now give it for Nc1ncnc2ccc(-c3ccc(CNc4ncccc4C(=O)NCc4ccc(C(F)(F)F)o4)s3)cc12 [Example 3.28, (bis TFA salt)] too.
5.30 to 6.00

---

Listed below: pIC50 values for each entry.
- TARGET_DESC: UniProtKB O15530
- ASSAY_METHOD_TEXT: PDK1 kinase assay (coupled PDK1/AKT/FAM-crosstide assay, IMAP fluorescence polarization)
- Format: biochemical
- SETTINGS: inhibition of phospo-PDK1 in vitro
pIC50: −log10 of the molar value.

CNS(=O)(=O)c1cnc(NCc2ccc(-c3ccc4ncnc(N)c4c3)s2)c(C(=O)N[C@@H](C)c2ccc(F)c(F)c2)c1 | > 7.00
Nc1n[nH]c2ncc(-c3ccc(CNc4nccc5ncn(Cc6ccc(F)c(F)c6)c(=O)c45)cc3)cc12 | > 7.00
CC(C)NC(=O)c1cccnc1NCc1cccc(-c2c[nH]c3ncccc23)c1 | < 5.30

For the next question, use this compound.
What value of pIC50 has been recorded for this entry: C[C@H](NC(=O)c1cccnc1NCc1ccc(-c2ccc3nccn3c2)s1)c1ccc(F)cc1
5.30 to 6.00

---

- TARGET_DESC: PDK1 (Homo sapiens (Human))
- ASSAY_METHOD_TEXT: PDK1 kinase assay (coupled PDK1/AKT/FAM-crosstide assay, IMAP fluorescence polarization)
- Type: biochemical
- SETTINGS: inhibition of phospo-PDK1 in vitro
Structures can show the parent of a compound that is named as a salt.
Each record here notes measured IC50.

Nc1ncnc2ccc(-c3ccc(CNc4ncccc4C(=O)Nc4cccc(F)c4)s3)cc12 [Example 3.46, (TFA salt)] | 100 to 1000 nM
O=C1Nc2cc(/C=C/CNc3ncccc3C(=O)NCc3ccc(F)cc3)ccc2/C1=C/c1cnc[nH]1 | < 100 nM

In the following, a different compound is considered.
Any idea what its IC50 is? The compound is O=C(NCc1ccc(F)c(F)c1)c1cccnc1NCc1ccc(-c2cnc3[nH]ncc3c2)s1
< 100 nM

---

- TARGET_DESC: UniProt:O15530
- ASSAY_METHOD_TEXT: PDK1 kinase assay (coupled PDK1/AKT/FAM-crosstide assay, IMAP fluorescence polarization)
- Format: biochemical
- SETTINGS: inhibition of PDK1 in vitro
REPORTED_METRIC: IC50

Cc1nc2cc(-c3ccc(CNc4ncc(C#N)cc4C(=O)N[C@@H](C)c4ccc(F)cc4)cc3)cnc2[nH]1 [Example 138] | < 100 nM
C[C@H](NC(=O)c1cc(C#N)cnc1NCc1ccc(-c2cnc(N)c(N3CCC[C@@H](N)C3)n2)cc1)c1ccc(F)cc1 [Example 188] | < 100 nM
C[C@H](NC(=O)c1cc(C#N)cnc1NCc1ccc(-c2cnc(N)c(C#N)c2)cc1)c1ccc(F)cc1 [Example 115] | < 100 nM

Quick one: IC50 for NCCNc1n[nH]c2ncc(-c3ccc(CNc4ncc(C(F)(F)F)cc4C(=O)NCc4ccc(F)c(F)c4)cc3)cc12 [Example 153] ?
< 100 nM

// repeat for CCn1cc(-c2ccc(CNc3ncc(C(F)(F)F)cc3C(=O)Nc3ccc(F)cc3)cc2)c2c(N)ncnc21 [Example 430] and report
< 100 nM

Then this compound: CC(C)c1ccc(NC(=O)c2cc(C(F)(F)F)cnc2NCc2ccc(-c3cnc4[nH]nc(N)c4c3)cc2)cc1 [Example 280]
100 to 1000 nM

Next compound up: C[C@H](NC(=O)c1cc(C#N)cnc1NCc1ccc(-c2ccc(NCCN(C)C)nc2)cc1)c1ccc(F)cc1 [Example 224]
> 5000 nM

---

- TARGET_DESC: PDK1 (Homo sapiens (Human), UniProt O15530)
- ASSAY_METHOD_TEXT: PDK1 kinase assay (coupled PDK1/AKT/FAM-crosstide assay, IMAP fluorescence polarization)
- Type: biochemical
- SETTINGS: inhibition of phospo-PDK1 in vitro
Counter-ions that a name gives are not always drawn.
REPORTED_METRIC: IC50

// below: answered compounds
C[C@H](NC(=O)c1cc(S(=O)(=O)N(C)C)cnc1NCc1ccc(-c2ccc3ncnc(N)c3c2)s1)c1ccc(F)c(F)c1 | < 100 nM
O=C(NCC1CCCC1)c1cccnc1NCc1cccc(-c2c[nH]c3ncccc23)c1 | 100 to 1000 nM
Nc1ncnc2ccc(-c3ccc(CNc4ncccc4C(=O)NCc4cncnc4)s3)cc12 [Example 3.57, (TFA salt)] | 1000 to 5000 nM
Cc1n[nH]cc1/C=C1\C(=O)Nc2cc(/C=C/CNc3ncccc3C(=O)NCc3ccc(F)c(F)c3)ccc21 | < 100 nM
O=C(NCc1ccc(F)c(F)c1)c1cccnc1NCc1ccc(-c2ccc3ncnc(N4CCOCC4)c3c2)s1 | < 100 nM

I am curious: what IC50 value has been reported for C#Cc1cnc(NCc2ccc(-c3ccc4ncnc(N)c4c3)s2)c(C(=O)NCc2ccc(F)c(F)c2)c1 ?
< 100 nM

Please answer likewise for CNC(=O)c1cc(S(=O)(=O)NC(C)(C)C)cnc1NCc1ccc(-c2ccc3ncnc(N)c3c2)s1
> 5000 nM
